- run description: PK1: absolute/subcutaneous bioavailability study of Tacrolimus solution (IV and SC)
- Type: in vivo, female Göttingen minipig
- test context: female, Göttingen, minipig, whole blood, subcutaneous; Tacrolimus solution 2.5 mg/animal SC vs IV
property: bioavailability
Answer format: number, then unit.

Lab book: bioavailability of C=CC[C@@H]1/C=C(\C)C[C@H](C)C[C@H](OC)[C@H]2O[C@@](O)(C(=O)C(=O)N3CCCC[C@H]3C(=O)OC(/C(C)=C/[C@@H]3CC[C@@H](O)[C@H](OC)C3)[C@H](C)[C@@H](O)CC1=O)[C@H](C)C[C@@H]2OC (stereo partly shown) [Tacrolimus] noted as 92.4%
